Tested on: Boophilus microplus
Test Description: Boophilus microplus injection test (BOOPMI Injection)
Type: in vivo
Measurement Context: Rhipicephalus microplus, 168 h; 4 μg/animal, injection into adult engorged female ticks, egg deposition after 7 days; read-out: activity (efficacy, infertile eggs)
Recorded pest or weed control at 0.004 mg by entry
Answer format: number, then unit.

Examples with answers:
C[C@H](Nc1nc2cc(C(F)(F)F)cc(Cl)c2o1)c1ncnn1-c1ncc(Br)cn1 | 100%
Cc1nc([C@H](C)Nc2nc3cc(Cl)cc(C(F)(F)F)c3o2)n(-c2ncccn2)n1 | 100%
C[C@H](Nc1nc2cc(C(F)(F)F)cc(Cl)c2o1)c1ncnn1-c1ncc(Cl)cn1 | 100%

Input: Please provide the recorded pest or weed control at 0.004 mg for `Cc1nc([C@H](C)Nc2nc3cc(C(F)(F)F)cc(C(F)(F)F)c3o2)n(-c2ccc(C#N)cn2)n1` , tested on Boophilus microplus.
Output: 100%

Input: Repeat for the following compound: `C[C@H](Nc1nc2cc(C(F)(F)F)cc(Br)c2o1)c1ncnn1-c1ncccn1`
Output: 100%

Input: Repeat for the following compound: `C[C@H](Nc1nc2cc(C(F)(F)F)c(Cl)cc2o1)c1ncnn1-c1ncccn1`
Output: 100%

Input: Repeat for the following compound: `C[C@H](Nc1nc2cc(C3CC3)cc(Cl)c2o1)c1ncnn1-c1ncccc1F`
Output: 100%

Input: Repeat for the following compound: `C[C@H](Nc1nc2cc(S(F)(F)(F)(F)F)cc(Cl)c2o1)c1ncnn1-c1ncccn1`
Output: 100%

Input: Repeat for the following compound: `C[C@H](Nc1nc2cc(C(F)(F)F)cc(Cl)c2o1)c1ncnn1-c1ccncn1`
Output: 100%

Input: Repeat for the following compound: `C[C@H](Nc1nc2cc(C(F)(F)F)c(Cl)cc2o1)c1ncnn1-c1cnc(C#N)cn1`
Output: 80%

Input: Repeat for the following compound: `Cc1cnc(-n2ncnc2[C@H](C)Nc2nc3cc(C(F)(F)F)cc(Cl)c3o2)nc1`
Output: 100%

Input: Repeat for the following compound: `C[C@H](Nc1nc2cc(C(C)(C)C)cc(Cl)c2o1)c1ncnn1-c1ncccn1`
Output: 100%

Input: Repeat for the following compound: `C[C@H](Nc1nc2cc(C(F)(F)F)c(Br)cn2n1)c1ncnn1-c1ncccn1`
Output: 100%

Input: Repeat for the following compound: `C[C@H](Nc1nc2cc(C(F)(F)F)cc(C(F)(F)F)c2o1)c1ncnn1-c1ccc(C#N)cn1`
Output: 100%
